Taken from the supplement of paper PMC6757056.

Measured normalized RNA/DNA level without ligand (log10) of individual entries
B1: library; a variant is named by its letters at N, in order (parent)
chain: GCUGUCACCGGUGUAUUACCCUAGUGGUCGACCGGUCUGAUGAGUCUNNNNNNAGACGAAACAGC

# Variants of: B1
# assay details: normalized RNA/DNA level without ligand (relative to sTRSVctl = 100) (log10 (% of sTRSVctl)); ligand: hypoxanthine (xanthine aptamer); higher = less ribozyme self-cleavage, higher mRNA level
# experimental setup: HEK293T, reporter: mCherry (pCS4076), ligand present: no
In your answer, state the number alone without any accompanying words.

Worked set:
GCUGUCACCGGUGUAUUACCCUAGUGGUCGACCGGUCUGAUGAGUCUUGCUGGAGACGAAACAGC [UGCUGG] :: 1.71
GCUGUCACCGGUGUAUUACCCUAGUGGUCGACCGGUCUGAUGAGUCUCGUCGCAGACGAAACAGC [CGUCGC] :: 1.91
GCUGUCACCGGUGUAUUACCCUAGUGGUCGACCGGUCUGAUGAGUCUAGUCCCAGACGAAACAGC [AGUCCC] :: 1.93
GCUGUCACCGGUGUAUUACCCUAGUGGUCGACCGGUCUGAUGAGUCUGCGACUAGACGAAACAGC [GCGACU] :: 1.76

(Q) Param item = GCUGUCACCGGUGUAUUACCCUAGUGGUCGACCGGUCUGAUGAGUCUACGUGGAGACGAAACAGC [ACGUGG] ; retrieve measured normalized RNA/DNA level without ligand (log10).
(A) 1.13

(Q) Param item = GCUGUCACCGGUGUAUUACCCUAGUGGUCGACCGGUCUGAUGAGUCUGAAACAAGACGAAACAGC [GAAACA] ; retrieve measured normalized RNA/DNA level without ligand (log10).
(A) 1.86

(Q) Param item = GCUGUCACCGGUGUAUUACCCUAGUGGUCGACCGGUCUGAUGAGUCUCGACUAAGACGAAACAGC [CGACUA] ; retrieve measured normalized RNA/DNA level without ligand (log10).
(A) 1.7

(Q) Param item = GCUGUCACCGGUGUAUUACCCUAGUGGUCGACCGGUCUGAUGAGUCUACUACUAGACGAAACAGC [ACUACU] ; retrieve measured normalized RNA/DNA level without ligand (log10).
(A) 1.82

(Q) Param item = GCUGUCACCGGUGUAUUACCCUAGUGGUCGACCGGUCUGAUGAGUCUAGGCGGAGACGAAACAGC [AGGCGG] ; retrieve measured normalized RNA/DNA level without ligand (log10).
(A) 1.35

(Q) Param item = GCUGUCACCGGUGUAUUACCCUAGUGGUCGACCGGUCUGAUGAGUCUAAGUGUAGACGAAACAGC [AAGUGU] ; retrieve measured normalized RNA/DNA level without ligand (log10).
(A) 1.57

(Q) Param item = GCUGUCACCGGUGUAUUACCCUAGUGGUCGACCGGUCUGAUGAGUCUACCGCGAGACGAAACAGC [ACCGCG] ; retrieve measured normalized RNA/DNA level without ligand (log10).
(A) 1.5

(Q) Param item = GCUGUCACCGGUGUAUUACCCUAGUGGUCGACCGGUCUGAUGAGUCUCCCGCUAGACGAAACAGC [CCCGCU] ; retrieve measured normalized RNA/DNA level without ligand (log10).
(A) 1.99

(Q) Param item = GCUGUCACCGGUGUAUUACCCUAGUGGUCGACCGGUCUGAUGAGUCUGAGUCAAGACGAAACAGC [GAGUCA] ; retrieve measured normalized RNA/DNA level without ligand (log10).
(A) 1.74

(Q) Param item = GCUGUCACCGGUGUAUUACCCUAGUGGUCGACCGGUCUGAUGAGUCUACUAAAAGACGAAACAGC [ACUAAA] ; retrieve measured normalized RNA/DNA level without ligand (log10).
(A) 1.76

(Q) Param item = GCUGUCACCGGUGUAUUACCCUAGUGGUCGACCGGUCUGAUGAGUCUCAGUUCAGACGAAACAGC [CAGUUC] ; retrieve measured normalized RNA/DNA level without ligand (log10).
(A) 1.81

(Q) Param item = GCUGUCACCGGUGUAUUACCCUAGUGGUCGACCGGUCUGAUGAGUCUCACCUCAGACGAAACAGC [CACCUC] ; retrieve measured normalized RNA/DNA level without ligand (log10).
(A) 1.97

(Q) Param item = GCUGUCACCGGUGUAUUACCCUAGUGGUCGACCGGUCUGAUGAGUCUUCAUAAAGACGAAACAGC [UCAUAA] ; retrieve measured normalized RNA/DNA level without ligand (log10).
(A) 1.75
